Source of measurements: patent US7790896B2

System: RNA (Type VI from torula yeast)
Experiment: In vitro solution assay (primary screening): fluorescent emission fold change upon binding to RNA
Conditions: dye 10 μM, RNA 500 μg/mL in TE buffer
Endpoint name: Fold (fluorescent emission fold changes to RNA)

Sample answers from the record:
INSERT INTO measurements (compound, number) VALUES
  ('C[n+]1c(C=Cc2ccc3c(c2)OCO3)ccc2ccccc21 [Dye E43]', 10),
  ('C[n+]1ccc(C=Cc2c(O)ccc3ccccc23)cc1 [Dye A42]', 10);

I: Cn1c(/C=C/c2cc[n+](C)cc2)cc2ccccc21 [Dye A108]
II: CCN(CC)c1ccc(/C=C/c2cccc(C)[n+]2C)cc1 [Dye C92]
III: COc1ccc2c(ccc(/C=C/c3c[nH]c4ccccc34)[n+]2C)c1 [Dye F4]
Problem: Arrange the 3 compounds from largest to smallest Fold (fluorescent emission fold changes to RNA). Sort the labels as requested; that list is your answer.
Result: III, II, I

---

Test system: RNA (16S- and 23S-ribosomal from E. coli)
Assay: Fluorescent properties of dye-RNA solution
Type: binding
Conditions: TE buffer pH 7.5, dye 5 μM, RNA 200 μg/mL
Entries and their measured EX (excitation λmax), RNA follow.
Unit nm implied. Number only.

Known EX (excitation λmax), RNA results, listed for orientation:
INSERT INTO measurements (compound, number) VALUES
  ('COc1cc(OC)c(/C=C/c2ccc3ccccc3[n+]2C)c(OC)c1 [Dye E144]', 456),
  ('C[n+]1c(/C=C/c2c[nH]c3ccccc23)ccc2ccccc21 [Dye E36]', 497),
  ('COc1ccc2c(ccc(/C=C/c3ccc(N(C)C)cc3[N+](=O)[O-])[n+]2C)c1 [Dye F112]', 465);

The recorded EX (excitation λmax), RNA for COc1ccc2c(ccc(/C=C/c3ccc(N(C)C)cc3)[n+]2C)c1 [Dye F22] is 548

---

Assay: Fluorescence spectrum in TE buffer of dyes selected from live cell imaging
Type: physicochemical
Details: dye 10 μM in TE buffer
Endpoint name: SPECTRUM EX (nm)

INSERT INTO measurements (compound, endpoint_name, number) VALUES
  ('COc1ccc(Oc2cccc(C=Cc3ccc4cc(OC)ccc4[n+]3C)c2)cc1', 'SPECTRUM EX', 350),
  ('COc1ccc2c(ccc(C=Cc3cccc(Br)c3)[n+]2C)c1', 'SPECTRUM EX', 400),
  ('CCOc1cccc(C=Cc2ccc3cc(OC)ccc3[n+]2C)c1O', 'SPECTRUM EX', 350),
  ('COc1ccc2c(ccc(/C=C/C3CCCN3C)[n+]2C)c1 (centres unmarked)', 'SPECTRUM EX', 450),
  ('C[n+]1c(/C=C/c2ccc(Br)s2)ccc2ccccc21', 'SPECTRUM EX', 350);

---

The following compounds are shown together with reported EX (excitation λmax), Buffer values.
Test: Fluorescent properties of free dye solution
Type: physicochemical
Settings: TE buffer pH 7.5, dye 5 μM
The reply should be a number in nm, with the unit left off.

INSERT INTO measurements (compound, number) VALUES
  ('COc1ccc2c(ccc(/C=C/c3ccc(N(C)C)cc3)[n+]2C)c1 [Dye F22]', 492),
  ('C[n+]1c(/C=C/c2c[nH]c3ccccc23)ccc2ccccc21 [Dye E36]', 457),
  ('COc1cc(OC)c(/C=C/c2ccc3ccccc3[n+]2C)c(OC)c1 [Dye E144]', 440);

Would you kindly look at the next entry?
The recorded EX (excitation λmax), Buffer for COc1ccc2c(ccc(/C=C/c3ccc(N(C)C)cc3[N+](=O)[O-])[n+]2C)c1 [Dye F112] is 462

---

Tested on: RNA (Type VI from torula yeast)
Assay: In vitro solution assay (primary screening): fluorescent emission fold change upon binding to RNA
Conditions: dye 10 μM, RNA 500 μg/mL in TE buffer
Endpoint name: Em(nm)

INSERT INTO assay_data (molecule, test_system, number) VALUES
  ('COc1cc(OC)c(OC)cc1/C=C/c1cc[n+](C)cc1 [Dye A8]', 'RNA (Type VI from torula yeast)', 580),
  ('CCN(CC)c1ccc(C=Cc2ccc3cc(OC)ccc3[n+]2C)c(C#N)c1 [Dye F132]', 'RNA (Type VI from torula yeast)', 640),
  ('CN(C)c1ccc(C=Cc2cc[n+](C)cc2)cc1 [Dye A22]', 'RNA (Type VI from torula yeast)', 610),
  ('COc1ccc2c(ccc(/C=C/c3cc4ccccc4n3C)[n+]2C)c1 [Dye F108]', 'RNA (Type VI from torula yeast)', 610),
  ('COc1ccc2c(ccc(/C=C/c3ccc(N(C)C)cc3)[n+]2C)c1 [Dye F22]', 'RNA (Type VI from torula yeast)', 640),
  ('COc1cc(/C=C/c2cc[n+](C)cc2)c(OCc2ccccc2)cc1OC [Dye A156]', 'RNA (Type VI from torula yeast)', 580),
  ('COc1ccc2c(ccc(C=Cc3ccc(O)c(Br)c3)[n+]2C)c1 [Dye F158]', 'RNA (Type VI from torula yeast)', 620),
  ('COc1cc(OC)c(C=Cc2cc[n+](C)cc2)c(OC)c1 [Dye A144]', 'RNA (Type VI from torula yeast)', 530),
  ('CCN(CC)c1ccc(C=Cc2ccc3cc(OC)ccc3[n+]2C)cc1 [Dye F92]', 'RNA (Type VI from torula yeast)', 640),
  ('CN(C)c1ccc(C=Cc2cc[n+](C)cc2)c2ccccc12 [Dye A24]', 'RNA (Type VI from torula yeast)', 660);

---

System: RNA (Type VI from torula yeast)
Assay: In vitro solution assay (primary screening): fluorescent emission fold change upon binding to RNA
Conditions: dye 10 μM, RNA 500 μg/mL in TE buffer
Endpoint name: Em(nm)

INSERT INTO measurements (test_smiles, number) VALUES
  ('Cc1cc(C=Cc2cc[n+](C)cc2)c(C)n1-c1cccc(C(F)(F)F)c1', 540),
  ('CCn1c2ccccc2c2cc(C=Cc3cc[n+](C)c4ccccc34)ccc21', 620),
  ('COc1cc(OC)c(OC)cc1C=Cc1cccc(C)[n+]1C', 570),
  ('CCN(CC)c1ccc(/C=C/c2cccc(C)[n+]2C)cc1', 630);

---

Test system: RNA (Type VI from torula yeast)
Assay: In vitro solution assay (primary screening): fluorescent emission fold change upon binding to RNA
Details: dye 10 μM, RNA 500 μg/mL in TE buffer
Endpoint name: Em(nm)

INSERT INTO assay_data (test_smiles, test_system, endpoint_name, number) VALUES
  ('Cc1cccc(C=Cc2cc3ccccc3n2C)[n+]1C', 'RNA (Type VI from torula yeast)', 'Em(nm)', 580),
  ('Cn1c(C=Cc2ccc3ccccc3[n+]2C)cc2ccccc21', 'RNA (Type VI from torula yeast)', 'Em(nm)', 620),
  ('C[n+]1ccc(C=Cc2c(O)ccc3ccccc23)cc1', 'RNA (Type VI from torula yeast)', 'Em(nm)', 560),
  ('COc1cc(/C=C/c2cccc[n+]2C)c(OCc2ccccc2)cc1OC', 'RNA (Type VI from torula yeast)', 'Em(nm)', 560),
  ('CCN(CC)c1ccc(C=Cc2cccc[n+]2C)cc1', 'RNA (Type VI from torula yeast)', 'Em(nm)', 600),
  ('Cn1c(/C=C/c2cc[n+](C)cc2)cc2ccccc21', 'RNA (Type VI from torula yeast)', 'Em(nm)', 590),
  ('C[n+]1c(C=Cc2ccc3c(c2)OCO3)ccc2ccccc21', 'RNA (Type VI from torula yeast)', 'Em(nm)', 560),
  ('COc1ccc2c(ccc(C=Cc3ccc(N(C)CCC#N)cc3)[n+]2C)c1', 'RNA (Type VI from torula yeast)', 'Em(nm)', 620),
  ('COc1ccc2c(ccc(/C=C/c3c[nH]c4ccccc34)[n+]2C)c1', 'RNA (Type VI from torula yeast)', 'Em(nm)', 560),
  ('CCN(CC)c1ccc(/C=C/c2cccc[n+]2C)c(C#N)c1', 'RNA (Type VI from torula yeast)', 'Em(nm)', 590),
  ('Cc1cccc(/C=C/c2ccc(N(C)CCC#N)cc2)[n+]1C', 'RNA (Type VI from torula yeast)', 'Em(nm)', 610),
  ('CN(CCC#N)c1ccc(/C=C/c2cc[n+](C)cc2)cc1', 'RNA (Type VI from torula yeast)', 'Em(nm)', 600),
  ('C[n+]1c(C=Cc2cc(Br)c(Cl)c(Br)c2)ccc2ccccc21', 'RNA (Type VI from torula yeast)', 'Em(nm)', 620),
  ('CN(CCO)c1ccc(/C=C/c2cc[n+](C)cc2)cc1', 'RNA (Type VI from torula yeast)', 'Em(nm)', 610),
  ('CCN(CC)c1ccc(C=Cc2cc[n+](C)cc2)c(C#N)c1', 'RNA (Type VI from torula yeast)', 'Em(nm)', 610),
  ('COc1ccc2c(ccc(C=Cc3ccc(N(C)CCO)cc3)[n+]2C)c1', 'RNA (Type VI from torula yeast)', 'Em(nm)', 630),
  ('Cc1cccc(/C=C/c2ccc(N(C)C)cc2)[n+]1C', 'RNA (Type VI from torula yeast)', 'Em(nm)', 630),
  ('COc1ccc2c(ccc(C=Cc3cc(OC)c(OC)cc3OC)[n+]2C)c1.[I-]', 'RNA (Type VI from torula yeast)', 'Em(nm)', 610),
  ('C[n+]1ccc(/C=C/c2c[nH]c3ccccc23)cc1', 'RNA (Type VI from torula yeast)', 'Em(nm)', 540),
  ('COc1cc(OC)c(/C=C/c2ccc3ccccc3[n+]2C)c(OC)c1', 'RNA (Type VI from torula yeast)', 'Em(nm)', 540),
  ('Cn1c(/C=C/c2cc[n+](C)c3ccccc23)cc2ccccc21', 'RNA (Type VI from torula yeast)', 'Em(nm)', 630);
